EXPERIMENT_DESCRIPTION: yeast display, Sf9 membrane polyspecificity reagent, FACS + sequencing; frameworks hold sequencing errors
EXPERIMENTAL_ENDPOINT: polyreactivity (PSR sort gate)

Consider the reported polyreactivity (PSR sort gate) for these sequences:
QVQLVESGGGLVQAGGSLRLSCAASGIIFVGYAMGWYRQAPGKERELVAAISSGGSTNYADSVKGRFTISRDNAKNTVYLQMNSLKPEDTAVYYCATDSGDGEGDYWGQGTQVTVSS low polyreactivity
QVQLVESGGGLVQAGGSLRLSCAASGFTFWTYAMGWYRQAPGKERELVAAIDSGGSTYYADSVKGRFTISRDNAKNTVYLQMNSVKPEDTAVYYCNAGPSVTSGYDYDYWGQGTQVTVSS low polyreactivity
QVQLVESGGGLVQGGGSLRLSCAASGSTFSRYAMGWYRPAPGKERELVAAITGTGGRTYYADSVKGRFTISRANAKNTVYLQRNSLKPEDTAVYYCAAQRWTVKYNYWGQGTQVTVSS high polyreactivity
QVQLVESGGGLVQAGGSLRLSCAASGLTFGPYAMGWYRQAPGKERELVAAITSGGNTNYADSVKGRYTISRDNAKNTVYLQMNSLKPEETAVYYCATSYYLAYRSITPYDYWGQGTQVTVSS low polyreactivity
QVQLVESGGGLFQAGGSLRLSCAASGIIFYVNAMAWSRQAPGKERERVAVISRRGGSTNDADSVKGRFTISRDNAKNTVYLQMKSLKPEDTAVYYCDAGYRTAYRGSSYYYWGKGTQVTVSS high polyreactivity
QVQLVESGGGLVQAGGSLRLSCAASGITFYRYAMGWYRQAPGKEREFVAAITWGSTYYADSVKGRFTISRDNAKNTVYLQMTSLKPEDTAVYYCNKKGYTVGATVGYWGQGTQVTVSS low polyreactivity
QVHLVESGGGLVQAGGSLRLSCAASGSIFYPYAMGWYRQAPGKERELVAAISGRGGNTYYADSVKGRFTISRDNAKNTVYFQMNSLKPEDTAVYYCAADRYYWSLYGYDYWGQGTQVTVSS high polyreactivity
QLQLVESGGGLVKAGGSLRLSCAASGFIFNCYAMGWNRQAPVKEREMVARISRSGGSTYYADSVKGRFTISRDNAKNTVYLQMNSLKPEDTAVYYCAADYYWSLHQRMDYWGQGTQVTVSS high polyreactivity

GET /values?readout=polyreactivity (PSR sort gate)&item= QVQLVESGGPLVQAGGSLRLSFAACGFTLWSYSLGWYRQAPGKESELVAAINSRGGRTSYADSVKGRFTISRDNAKNTVYLQINRLKPEDTAVYYCATDPISRARLYGQRDYWGQGTQVTVSS
high polyreactivity

Continue with QVQLVVSGGGLVQAGGSLRLSCAASGSTFVSNAMGWYRQAPGQERELVAAITSGGSTDYADSVKGRCTISRDNAKNTVYVQMNSLQPEDTAVYYGAADPEWHSDQPRVGYVGYNYWGQGTQVNVSS
low polyreactivity

// repeat for QVQLVESGGCLVQAGGSLRLSCAPSGYTFGRNAMGWYRQAPGKEWELVATISQRGGSTYYADSVKGRFTISRDNAKNTVYLQLNSLKPEDTAVYYCSAGPIYRYRRYYYWGQGTQVTVSS and report
high polyreactivity

Another sequence: QVQLVESRGGLVQAGGSLRFSCAASGSTFRDYAMGGSRQAPGKERQVLAAISSTGGRTYYADSVKGRFTISRDNAKNTVYLQMNSLKPEDTAVYYCKAALYPSLDYGSASISKSYDYWGQGTQVTVSS
high polyreactivity

Can you check QVQLVESGGGLVHAGGILRLSCAASGRTFPYYAMGWYRQAPGKERELVAAISSSGGGTYYADSVKGRFTISRDTAKNTVYLQMNSLKPEDTAVYYCNAVSYYQDSFYYWGQGTQVTVSS next?
high polyreactivity

Likewise for QVHLVESGGGLVQAGGSLRLSCAASGSTFQSNAMGWYRQAPGKERELVATITQSGATTYYADSVKGRFTISRDNAKNTVYLQMNSLKPEDTAVYYCNVDTYQKRWFWLDLDGGYWGQGTQVTVSS ?
low polyreactivity
